Give measured infection (% diseased leaf area) for each item. Keep answers brief.
Tested on: Pyricularia oryzae
Format: in vivo
conditionDetails: 200 ppm, rice seedlings variety Tai-Nong 67, protective; untreated plants infected to 90%
Numbers only, in %.

Some entries whose results are on file:
[
  {
    "compound": "Fc1cccc(Cl)c1-c1c(Cl)nc2ncnn2c1NCC(F)(F)F [B]",
    "infection (% diseased leaf area) [%]": 10
  },
  {
    "compound": "FC(F)=C(F)CCNc1c(-c2c(F)cc(F)cc2F)c(Cl)nc2ncnn12 [I-2]",
    "infection (% diseased leaf area) [%]": 3
  },
  {
    "compound": "CC(Nc1c(-c2c(F)cccc2F)c(Cl)nc2ncnn12)C(F)(F)F (stereo not drawn) [C]",
    "infection (% diseased leaf area) [%]": 20
  },
  {
    "compound": "CC(CNc1c(-c2c(F)cc(F)cc2F)c(Cl)nc2ncnn12)CC(F)(F)F (stereo not drawn) [I-3]",
    "infection (% diseased leaf area) [%]": 3
  },
  {
    "compound": "Fc1cc(F)c(-c2c(Cl)nc3ncnn3c2NCC(F)C(F)(F)F)c(F)c1 (stereo not drawn) [I-1]",
    "infection (% diseased leaf area) [%]": 3
  }
]

Here's the next entry for you.
[ask] Could you please provide reported infection (% diseased leaf area) for Fc1cc(F)c(-c2c(Cl)nc3ncnn3c2NCC(F)(F)F)c(F)c1 [A] ? Thanks!
[reply] 60
